# System: OVCAR-8 ovarian
# test-protocol: NCI-60 one-dose screen, 48 h (100 = growth as untreated, 0 = no growth, -100 = all killed)
# experimental-parameters: 10 µM unless noted
This is part of a sample that, as a whole, favours compounds with a hit. Of some 83,000 tested, about 20% had one in any assay.
observed-property: growth (%)
Express it in %; write the number only.

INSERT INTO results (compound, target_of_assay, observed_property, measurement) VALUES
  ('O=C(N/N=C\c1ccc(Cl)cc1Cl)c1ccncc1', 'OVCAR-8 ovarian', 'growth', 101),
  ('CC(=O)C1C(=O)C(=O)N(c2cccc([N+](=O)[O-])c2)C1=O (centres undefined)', 'OVCAR-8 ovarian', 'growth', 106),
  ('CCNCC(C)(C)O', 'OVCAR-8 ovarian', 'growth', 106);

Now turn to the next compound.
# query: growth of entry Cn1c2ccccc2c2nnc(NCCCCO)nc21
100

###

# System: NCI/ADR-RES ovarian
# test-protocol: NCI-60 one-dose screen, 48 h (100 = growth as untreated, 0 = no growth, -100 = all killed)
# experimental-parameters: 10 µM unless noted
About 83,000 compounds went through this panel and 20% of them were active in at least one assay; those are over-represented in the sample as a whole.
observed-property: growth (%)
Please give a number only; it is taken to be in %.

These solved cases illustrate the format of a correct answer.
INSERT INTO measurements (molecule, observed_property, quantity_unit, measurement) VALUES
  ('O=C(O)CSCC(=O)Nc1cc(C(F)(F)F)ccc1Cl', 'growth', '%', 117),
  ('Nc1ccc2c(c1)Cc1cc(N)c(N)cc1-2', 'growth', '%', 101),
  ('CC(=O)OCC1CCC(COC(C)=O)CC1 (stereo not given)', 'growth', '%', 99.2);

Param item = CCOC(=O)c1cc(C)[nH]c(=O)c1C#N ; retrieve measured growth.
109

So what does the record say about growth for CC(=O)c1cccc(NS(=O)(=O)c2ccc(C)cc2)c1 ?
50.5

State the recorded growth for this entry: Cc1ccc(/C=N/NC(N)=S)s1
109

# input molecule: Cn1c2ccccc2c2nnc(NCCCCO)nc21 ; wanted: its growth
94.3

Give the measured growth of CC1(C)C2CCC1(C)C1(C2)OCCS1 (stereo not given) .
92.4

Consider the molecule shown here: Cc1cc(=O)n(Nc2ccccc2)c(O)c1C#N What is its recorded growth?
102

Consider the molecule O=C(Nc1ccccc1)c1ccco1 and give its measured growth.
107

###

growth reference
# System: T-47D breast
# test-protocol: NCI-60 one-dose screen, 48 h (100 = growth as untreated, 0 = no growth, -100 = all killed)
# experimental-parameters: 10 µM unless noted
# Description: Growth inhibition of the T-47D human tumor cell line is measured as a screen for anti-cancer activity. Cells are grown in 96 well plates and exposed to the test compound for 48 hours. Compounds are tested at a single concentration, which is 10^-5 M for most compounds. The reported endpoint is percent growth (GI% or GIPRCNT), where numbers from 0 - 100% represent growth inhibition, and numbers from -100% - 0 represent cell death. For example, a value of 40 represents 60% growth inhibition. […]
About 83,000 compounds went through this panel and 20% of them were active in at least one assay; those are over-represented in the sample as a whole.
// units = %; emit number, no label

Give its growth value. Item: CCOC(OCC)C(=O)c1ccccc1
103

###

# Test system: MALME-3M melanoma
# test-protocol: NCI-60 one-dose screen, 48 h (100 = growth as untreated, 0 = no growth, -100 = all killed)
# experimental-parameters: 10 µM unless noted
Compounds without any hit were thinned out: in the full panel of roughly 83,000, 20% have a hit.
The entries below come with measured growth values attached.
Quick note: give the figure in %, leave out the unit.

Example results:
INSERT INTO results (compound_structure, quantity_unit, measurement) VALUES
  ('CCOC(=O)CNC(=O)Sc1ccc(C(C)(C)C)cc1', '%', 90.7),
  ('O=C1CSc2ccccc2N1', '%', 108),
  ('CCCCOC(=O)c1ccc(NC(=O)CCl)cc1', '%', -67.5);

Which value of growth has been reported for FC(F)(F)c1cc(NC2=NCCN=C(Nc3cc(C(F)(F)F)cc(C(F)(F)F)c3)SS2)cc(C(F)(F)F)c1 in the records?
37

###

# Test system: IGROV1 ovarian
# test-protocol: NCI-60 one-dose screen, 48 h
# experimental-parameters: 10 µM unless noted
The panel holds about 83,000 compounds, 20% with a hit somewhere; the sample as a whole holds those more often. Calls of active or inactive are those of the source. How the source made its calls: active means growth percent below 10; inactive means the rest.
Outcome (select one): 1 (yes) (active), 0 (no) (inactive)

INSERT INTO assay_data (compound, discrete_label) VALUES
  ('c1ccc2c(NCCCN3CCN(CCCNc4c5ccccc5nc5ccccc45)CC3)c3ccccc3nc2c1', '1 (yes)'),
  ('C/C(O)=C(/C=N\C(=S)Nc1ccc(S(=O)(=O)Nc2nccs2)cc1)C(=O)Nc1ccccc1C', '0 (no)'),
  ('NNc1ncnc2c1ncn2C1OC(CO)C(O)C1O (stereo not given)', '0 (no)');

# outcome recorded in this test, key = NC(=S)N/N=C/c1ccc(Cl)cc1
0 (no)

I'd appreciate the recorded outcome for CCOC(=O)/C(C)=C\c1ccc(OC)c(OC)c1 from this test.
0 (no)

###

# Tested on: HOP-92 NSCLC
# test-protocol: NCI-60 one-dose screen, 48 h
# experimental-parameters: 10 µM unless noted
This is part of a sample that, as a whole, favours compounds with a hit. Of some 83,000 tested, about 20% had one in any assay. Activity calls are given as the source filed them. Rule for the calls: active = growth percent below 10; inactive = the rest.
Can you answer with just one of these options? 1.0 for active, 0.0 for inactive

Some solved entries appear below for comparison.
INSERT INTO measurements (compound, discrete_label) VALUES
  ('OCc1cccnc1', 0.0),
  ('C1Cc2onc(-c3noc4c3CCC4)c2C1', 0.0),
  ('CCOS(=O)(=O)c1ccc([N+](=O)[O-])cc1', 0.0),
  ('CN(C)c1ncnc2c1cnn2C', 0.0),
  ('CCOC(=O)c1cc(Cl)c(O)c(Cl)c1', 0.0),
  ('Clc1cccc(Cl)c1C1CSc2ccccc2N=C1c1ccccc1 (stereo unspecified)', 0.0);

Please indicate how the test categorized OCC1OC(n2ccc3c2ncn2ncnc32)C(O)C1O (stereo unspecified) .
1.0

// param item: O=C(O)CC1=CCCCC1 ; yields the recorded call
0.0

So what was the verdict on CCOC(=O)C1(N)CCCCC1 in this test?
0.0

// param item: CNc1ccccc1C(N)=O ; yields the recorded call
0.0

What classification did CC(=O)C[n+]1ccc(C)cc1Sc1ccccc1C end up with in this test?
0.0

Per the assay record, what outcome was assigned to Cc1ccc(C)c2c1CCC2=O ?
0.0

###

# Tested on: MOLT-4 leukemia
# test-protocol: NCI-60 one-dose screen, 48 h (100 = growth as untreated, 0 = no growth, -100 = all killed)
# experimental-parameters: 10 µM unless noted
Compounds without any hit were thinned out: in the full panel of roughly 83,000, 20% have a hit.
# Lookup of reported growth keyed by entry
Write the number in % without appending the unit.

Use these answered entries as a reference point.
INSERT INTO results (compound, measurement) VALUES
  ('CCN(CC)c1ccc2nc3ccc(N=Nc4ccc(N(C)C)cc4)cc3[n+](-c3ccccc3)c2c1', -20.1),
  ('CC(c1ccccc1)N(C)C (stereo not drawn)', 84.3),
  ('C=CCOc1ccc(Cl)cc1Cl', 52),
  ('Cc1ccc([N+](=O)[O-])c(C)n1', 115);

Any idea what growth was measured for O=c1n(CC2CO2)c(=O)n(CC2CO2)n1CC1CO1 (stereo not drawn) ?
19.2

Return reported growth; argument: c1ccc(Oc2c3ccccc3nc3ccccc23)cc1
14.5

###

# Tested on: U251 CNS
# test-protocol: NCI-60 one-dose screen, 48 h (100 = growth as untreated, 0 = no growth, -100 = all killed)
# experimental-parameters: 10 µM unless noted
This is part of a sample that, as a whole, favours compounds with a hit. Of some 83,000 tested, about 20% had one in any assay.
observed-property: growth (%)
// return numeric value only (unit: %, not printed)

INSERT INTO measurements (compound, quantity_unit, measurement) VALUES
  ('O=C(NCc1ccccc1)c1cccc([N+](=O)[O-])c1', '%', 89.1),
  ('N#Cc1ccc(OC(=O)Nc2c(Cl)cc(Cl)cc2Cl)cc1', '%', 104),
  ('Cc1cc(=O)n(Nc2ccccc2)c(O)c1C#N', '%', 103),
  ('CCOP(=O)(OCC)/C(=C\N1C(=O)CC(=O)NC1=S)C(=O)OC', '%', 94.7),
  ('CN(C)c1ccc2c(N(C)C)cc(N(C)C)nc2c1', '%', 90.8);

Return reported growth; argument: CC(=O)N=c1ccc2nc3c(cc(N)c4ccccc43)oc-2c1
-73.7

Returns the measured growth for the input compound. Input: NC(CO)(CO)c1ccccc1
97.3

Requested read-out: growth. Entry: CCOC(=O)CNC(=O)Sc1ccc(C(C)(C)C)cc1
83.5

Any idea what growth was measured for CCC1CCC(C)NC1 (stereo unspecified) ?
95.7

Entry under review: C=CCc1cc(OC)c(OC)c(OC)c1 . Reported growth?
102

Given the entry CCOC(=O)C(C#N)=C1CCN(C)CC1 , report its measured growth.
104

Values from PubChem BioAssay (NCI)
